Answer each item with its documented GI50.
test system: NCI-H23 lung; test: NCI tumour cell line growth inhibition, 48 h

// for each compound in input: emit GI50
1. CCCCCn1c(=N)n(CC(O)COc2cccc(C)c2)c2ccccc21 (centres undefined)
2. C[C@@H](C(=O)Nc1ccc(Cl)cc1)C1CCC(c2ccnc3ccc(F)cc23)CC1 (some centres undefined)
3. CCN1C(=O)N(CC)C2C1NN=c1s/c(=C\c3cccnc3)c(=O)n12 (centres undefined)
4. CC1SC(c2c(Cl)cccc2Cl)N(NC(=O)c2[nH]c3ccc(F)cc3c2-c2ccccc2)C1=O (centres undefined)

### Response
["6.87 µM", "3.93 µM", "0.689 µM", "2.73 µM"]

Attribution: PubChem BioAssay (NCI)
